System: bovine REC
assay.summary: Migration (wound healing) assay
Format: cell-based
condition.context: basal and growth factor-stimulated (CK2 blockers); H-7 preliminary, not shown
measure: effect of kinase inhibitors on migration

O=c1c(O)c(-c2ccc(O)c(O)c2)oc2cc(O)cc(O)c12 = potently inhibited
Cc1cc(O)c2c(c1)C(=O)c1cc(O)cc(O)c1C2=O [emodin, 3-methyl-1,6,8-trihydroxyanthraquinone] = potently inhibited
OC[C@H]1O[C@@H](n2cnc3cc(Cl)c(Cl)cc32)[C@H](O)[C@@H]1O = potently inhibited

---

Test system: bovine REC
assay.summary: Secondary sprouting assay on reconstituted basement membrane matrix (MTS)
Type: cell-based
condition.context: basal and growth factor-stimulated (CK2 blockers); H-7 preliminary, not shown
measure: effect of kinase inhibitors on secondary sprouting

O=c1c(O)c(-c2ccc(O)c(O)c2)oc2cc(O)cc(O)c12 [quercetin] = potently inhibited
Cc1cc(O)c2c(c1)C(=O)c1cc(O)cc(O)c1C2=O [emodin, 3-methyl-1,6,8-trihydroxyanthraquinone] = potently inhibited
OC[C@H]1O[C@@H](n2cnc3cc(Cl)c(Cl)cc32)[C@H](O)[C@@H]1O [DRB] = potently inhibited
